Values compiled from ChEMBL document CHEMBL5352436.

assay: Cytotoxicity against human HCT116-p53-null cells assessed as reduction in cell viability incubated for 72 hrs by MTS assay; assay type: functional, cell-based
Endpoint Name: IC50 (µM)
Note: unit µM is implicit; provide only the numeric part.

[ask] For the compound shown here, `C#CCOC(=O)[C@]12CC[C@@H](C(=C)C)[C@@H]1[C@H]1CC[C@@H]3[C@@]4(C)CC[C@H](O)C(C)(C)[C@@H]4CC[C@@]3(C)[C@]1(C)CC2` , give the reported IC50.
[reply] 31

[ask] Query: IC50; subject: `C#CCOC(=O)[C@]12CC[C@@H](C(=C)C=O)[C@@H]1[C@H]1CC[C@@H]3[C@@]4(C)Cc5nccnc5C(C)(C)[C@@H]4CC[C@@]3(C)[C@]1(C)CC2`
[reply] 6.3

====

Task for the reader: assign each of the following compounds its reported remaining at 2 h.
assay: Chemical stability in PBS buffer at pH 7.4 assessed as compound remaining measured at 120 mins by RF-MS analysis; assay type: physicochemical; settings: read-out: Stability
Field format: number, assumed %, no unit text.

[ask] Report remaining at 2 h for `C=C(C=O)[C@@H]1CC[C@]2(C(=O)OCc3cn([C@H]4O[C@H](COC(C)=O)[C@@H](OC(C)=O)[C@H](OC(C)=O)[C@H]4OC(C)=O)nn3)CC[C@]3(C)[C@H](CC[C@@H]4[C@@]5(C)CC[C@H](O)C(C)(C)[C@@H]5CC[C@]43C)[C@@H]12` please.
[reply] 83.8

[ask] Requested read-out: remaining at 2 h. Entry: C=C(C=O)[C@@H]1CC[C@]2(C(=O)OCc3cn([C@H]4O[C@H](COC(C)=O)[C@@H](OC(C)=O)[C@H](OC(C)=O)[C@H]4OC(C)=O)nn3)CC[C@]3(C)[C@H](CC[C@@H]4[C@@]5(C)Cc6nccnc6C(C)(C)[C@@H]5CC[C@]43C)[C@@H]12 (stereo in doubt)
[reply] 85.2

[ask] Look up remaining at 2 h: C=C(C)[C@@H]1CC[C@]2(C(=O)OCc3cn([C@H]4O[C@H](COC(C)=O)[C@@H](OC(C)=O)[C@H](OC(C)=O)[C@H]4OC(C)=O)nn3)CC[C@]3(C)[C@H](CC[C@@H]4[C@@]5(C)Cc6nccnc6C(C)(C)[C@@H]5CC[C@]43C)[C@@H]12 (stereo in doubt)
[reply] 92.9

[ask] What value of measured remaining at 2 h is listed for `C=C(C)[C@@H]1CC[C@]2(C(=O)OCc3cn([C@H]4O[C@H](COC(C)=O)[C@@H](OC(C)=O)[C@H](OC(C)=O)[C@H]4OC(C)=O)nn3)CC[C@]3(C)[C@H](CC[C@@H]4[C@@]5(C)CC[C@H](O)C(C)(C)[C@@H]5CC[C@]43C)[C@@H]12` ?
[reply] 77.9

====

test: Cytotoxicity against human BJ cells assessed as reduction in cell viability incubated for 72 hrs by MTS assay; format: toxicity, cell-based
Please go through the items and note down their IC50 at 72 h.

[ask] Report IC50 at 72 h for CC1(C)C=C2[C@H]3CC[C@@H]4[C@@]5(C)CCC(=O)C(C)(C)[C@@H]5CC[C@@]4(C)[C@]3(C)CC[C@@]2(C(=O)O)CC1 [MORONIC ACID] please.
[reply] > 50 µM

[ask] Look up IC50 at 72 h: C=C(C)[C@@H]1CC[C@]2(C(=O)OCc3cn([C@H]4O[C@H](COC(C)=O)[C@@H](OC(C)=O)[C@H](OC(C)=O)[C@H]4OC(C)=O)nn3)CC[C@]3(C)[C@H](CC[C@@H]4[C@@]5(C)Cc6nccnc6C(C)(C)[C@@H]5CC[C@]43C)[C@@H]12 (stereo in doubt)
[reply] > 50 µM

====

experiment: Cytotoxicity against human BJ cells assessed as reduction in cell viability incubated for 72 hrs by MTS assay; format: toxicity, cell-based
Endpoint Name: IC50 at 72 h

[ask] // lookup IC50 at 72 h for `CC1=CC[C@]2(C(=O)O)CC[C@]3(C)C(=CC[C@@H]4[C@@]5(C)Cc6cccnc6C(C)(C)[C@@H]5CC[C@]43C)[C@H]2[C@@H]1C`
[reply] > 50 µM

[ask] Sample `CC1(C)CC[C@]23CC[C@]4(C)[C@H](CC[C@@H]5[C@@]6(C)Cc7nccnc7C(C)(C)[C@@H]6CC[C@]54C)[C@H]2[C@H]1OC3` — what was its IC50 at 72 h?
[reply] > 50 µM

[ask] Suppose we examine the compound `C#CCOC(=O)[C@]12CC[C@@H](C(=C)C)[C@@H]1[C@H]1CC[C@@H]3[C@@]4(C)CC[C@H](O)C(C)(C)[C@@H]4CC[C@@]3(C)[C@]1(C)CC2` ; what IC50 at 72 h value has been reported?
[reply] 32 µM

[ask] Endpoint output: IC50 at 72 h of `C=C(C)[C@@H]1CC[C@]2(C(=O)OCc3cn([C@H]4O[C@H](COC(C)=O)[C@@H](OC(C)=O)[C@H](OC(C)=O)[C@H]4OC(C)=O)nn3)CC[C@]3(C)[C@H](CC[C@@H]4[C@@]5(C)CC[C@H](O)C(C)(C)[C@@H]5CC[C@]43C)[C@@H]12` . Value?
[reply] > 50 µM

[ask] Which IC50 at 72 h reading was recorded for the compound `C#CCOC(=O)[C@]12CC[C@@H](C(=C)C)[C@@H]1[C@H]1CC[C@@H]3[C@@]4(C)Cc5nccnc5C(C)(C)[C@@H]4CC[C@@]3(C)[C@]1(C)CC2` ?
[reply] > 50 µM

====

Could you please report measured remaining at 0.5 h, 2 µM for the items listed next?
test: Stability in human plasma assessed as compound remaining at 2 uM measured at 30 mins by RF-MS analysis; format: ADME, cell-free; details: read-out: Stability
Kindly answer with a numeric value in %, unit omitted.

[ask] If you can, please state the reported remaining at 0.5 h, 2 µM value of `C=C(C)[C@@H]1CC[C@]2(C(=O)OCc3cn([C@H]4O[C@H](COC(C)=O)[C@@H](OC(C)=O)[C@H](OC(C)=O)[C@H]4OC(C)=O)nn3)CC[C@]3(C)[C@H](CC[C@@H]4[C@@]5(C)CC[C@H](O)C(C)(C)[C@@H]5CC[C@]43C)[C@@H]12` .
[reply] 92.2

[ask] Report remaining at 0.5 h, 2 µM for `C=C(C=O)[C@@H]1CC[C@]2(C(=O)OCc3cn([C@H]4O[C@H](COC(C)=O)[C@@H](OC(C)=O)[C@H](OC(C)=O)[C@H]4OC(C)=O)nn3)CC[C@]3(C)[C@H](CC[C@@H]4[C@@]5(C)CC[C@H](O)C(C)(C)[C@@H]5CC[C@]43C)[C@@H]12` please.
[reply] 88.7

[ask] I would be grateful if you could share the reported remaining at 0.5 h, 2 µM for C=C(C)[C@@H]1CC[C@]2(C(=O)OCc3cn([C@H]4O[C@H](COC(C)=O)[C@@H](OC(C)=O)[C@H](OC(C)=O)[C@H]4OC(C)=O)nn3)CC[C@]3(C)[C@H](CC[C@@H]4[C@@]5(C)Cc6nccnc6C(C)(C)[C@@H]5CC[C@]43C)[C@@H]12 (stereo in doubt) .
[reply] 91.2

[ask] For C=C(C=O)[C@@H]1CC[C@]2(C(=O)OCc3cn([C@H]4O[C@H](COC(C)=O)[C@@H](OC(C)=O)[C@H](OC(C)=O)[C@H]4OC(C)=O)nn3)CC[C@]3(C)[C@H](CC[C@@H]4[C@@]5(C)Cc6nccnc6C(C)(C)[C@@H]5CC[C@]43C)[C@@H]12 (stereo in doubt) , what is its reported remaining at 0.5 h, 2 µM?
[reply] 97.2

====

Can you tell me IC50 for the items I'm about to list?
test system: CCRF-CEM; test: Cytotoxicity against human CCRF-CEM cells assessed as reduction in cell viability incubated for 72 hrs by MTS assay; assay type: functional, cell-based
# value in µM; strip the unit string

[ask] Please report the recorded IC50 for `C[C@H]1[C@H](C)CC[C@]2(C(=O)O)CC[C@]3(C)C(=CC[C@@H]4[C@@]5(C)Cc6cccnc6C(C)(C)[C@@H]5CC[C@]43C)[C@H]12` .
[reply] 38

[ask] Please give the measured IC50 for this compound: `CC1(C)C=C2[C@H]3CC[C@@H]4[C@@]5(C)Cc6nccnc6C(C)(C)[C@@H]5CC[C@@]4(C)[C@]3(C)CC[C@@]2(C(=O)O)CC1`
[reply] 15

[ask] GET /values?readout=IC50&item= CC1(C)C=C2[C@H]3CC[C@@H]4[C@@]5(C)CCC(=O)C(C)(C)[C@@H]5CC[C@@]4(C)[C@]3(C)CC[C@@]2(C(=O)O)CC1 [MORONIC ACID]
[reply] 17

====

test system: U2OS; assay: Cytotoxicity against human U2OS cells assessed as reduction in cell viability incubated for 72 hrs by MTS assay; format: functional, cell-based
Assign IC50 to each entry below.

[ask] Fill in the blank: the reported IC50 of `CC1(C)CC[C@]2(C(=O)O)CC[C@]3(C)C(=CC[C@@H]4[C@@]5(C)Cc6cccnc6C(C)(C)[C@@H]5CC[C@]43C)[C@@H]2C1` is ____.
[reply] > 50 µM

[ask] Can you share its IC50? I mean this compound: `C[C@H]1[C@H](C)CC[C@]2(C(=O)O)CC[C@]3(C)C(=CC[C@@H]4[C@@]5(C)Cc6cccnc6C(C)(C)[C@@H]5CC[C@]43C)[C@H]12`
[reply] > 50 µM

[ask] Would you mind telling me what IC50 value was observed for `C=C(C)[C@@H]1CC[C@]2(C(=O)OCc3cn([C@H]4O[C@H](COC(C)=O)[C@@H](OC(C)=O)[C@H](OC(C)=O)[C@H]4OC(C)=O)nn3)CC[C@]3(C)[C@H](CC[C@@H]4[C@@]5(C)CC[C@H](O)C(C)(C)[C@@H]5CC[C@]43C)[C@@H]12` ?
[reply] > 50 µM

[ask] Returns the measured IC50 for the input compound. Input: `C#CCOC(=O)[C@]12CC[C@@H](C(=C)C=O)[C@@H]1[C@H]1CC[C@@H]3[C@@]4(C)Cc5nccnc5C(C)(C)[C@@H]4CC[C@@]3(C)[C@]1(C)CC2`
[reply] 1.4 µM

[ask] // returns reported IC50 for input `C=C(C)[C@@H]1CC[C@]2(C(=O)OCc3oc(=O)oc3C)CC[C@]3(C)[C@H](CC[C@@H]4[C@@]5(C)Cc6cccnc6C(C)(C)[C@@H]5CC[C@]43C)[C@@H]12`
[reply] > 50 µM

[ask] Value lookup for IC50; key = C=C(C)[C@@H]1CC[C@]2(C(=O)OCc3cn([C@H]4O[C@H](COC(C)=O)[C@@H](OC(C)=O)[C@H](OC(C)=O)[C@H]4OC(C)=O)nn3)CC[C@]3(C)[C@H](CC[C@@H]4[C@@]5(C)Cc6nccnc6C(C)(C)[C@@H]5CC[C@]43C)[C@@H]12 (stereo in doubt)
[reply] > 50 µM

[ask] Item `CC1(C)CC[C@]23CC[C@]4(C)[C@H](CC[C@@H]5[C@@]6(C)Cc7cccnc7C(C)(C)[C@@H]6CC[C@]54C)[C@H]2[C@H]1OC3` has what recorded IC50?
[reply] > 50 µM

[ask] Recorded IC50 for `Cc1oc(=O)oc1COC(=O)[C@]12CC[C@@H](C(C)C)[C@@H]1[C@H]1CC[C@@H]3[C@@]4(C)Cc5nccnc5C(C)(C)[C@@H]4CC[C@@]3(C)[C@]1(C)CC2` , please?
[reply] 40 µM

[ask] I'd like to know its IC50. The compound in question is `C#CCOC(=O)[C@]12CC[C@@H](C(=C)C=O)[C@@H]1[C@H]1CC[C@@H]3[C@@]4(C)CC[C@H](O)C(C)(C)[C@@H]4CC[C@@]3(C)[C@]1(C)CC2`
[reply] 1.6 µM

[ask] Could you share which IC50 value was measured for `C#CCOC(=O)[C@]12CC[C@@H](C(=C)C)[C@@H]1[C@H]1CC[C@@H]3[C@@]4(C)Cc5nccnc5C(C)(C)[C@@H]4CC[C@@]3(C)[C@]1(C)CC2` ?
[reply] > 50 µM
